Target: T1, EsCas13d, nuclease-dead (Eubacterium siraeum, UniProt B0MS50, R295A;H300A;R849A;H854A)
T1 sequence: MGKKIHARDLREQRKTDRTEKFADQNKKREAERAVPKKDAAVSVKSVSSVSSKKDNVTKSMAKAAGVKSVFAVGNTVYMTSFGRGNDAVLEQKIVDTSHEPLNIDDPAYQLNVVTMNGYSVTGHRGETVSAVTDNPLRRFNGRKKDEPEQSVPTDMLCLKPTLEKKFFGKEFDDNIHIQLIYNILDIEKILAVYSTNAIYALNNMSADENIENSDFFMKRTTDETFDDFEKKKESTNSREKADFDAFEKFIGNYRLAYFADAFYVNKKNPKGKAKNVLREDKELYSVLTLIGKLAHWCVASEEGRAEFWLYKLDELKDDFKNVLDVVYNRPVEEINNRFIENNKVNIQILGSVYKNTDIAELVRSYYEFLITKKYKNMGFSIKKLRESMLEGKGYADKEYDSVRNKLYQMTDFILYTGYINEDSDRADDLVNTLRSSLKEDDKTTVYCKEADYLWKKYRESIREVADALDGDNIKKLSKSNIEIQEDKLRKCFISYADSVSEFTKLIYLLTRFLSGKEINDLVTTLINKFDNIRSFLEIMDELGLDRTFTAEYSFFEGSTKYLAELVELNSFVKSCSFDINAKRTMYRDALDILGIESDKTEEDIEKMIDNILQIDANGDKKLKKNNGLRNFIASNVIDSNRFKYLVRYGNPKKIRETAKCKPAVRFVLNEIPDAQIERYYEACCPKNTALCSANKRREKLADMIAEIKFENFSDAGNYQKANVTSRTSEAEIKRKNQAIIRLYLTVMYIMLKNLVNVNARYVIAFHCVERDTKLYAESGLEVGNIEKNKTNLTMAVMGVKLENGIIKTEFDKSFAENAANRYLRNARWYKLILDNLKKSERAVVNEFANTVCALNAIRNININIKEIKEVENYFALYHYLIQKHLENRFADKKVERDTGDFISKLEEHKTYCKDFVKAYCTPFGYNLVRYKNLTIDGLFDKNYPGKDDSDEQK
Experiment: crRNA (strand 1, pre-loaded); Mg2+; 40 mM Tris-HCl pH 7.5, 150 mM NaCl, 6 mM MgCl2, 1 mM DTT, 0.1% Tween-20, 0.2 mg/ml BSA; 25 C; 10 min per concentration, then washed
Settings: tags: His6-TwinStrep-SUMO cleaved; N-terminal SNAP kept (SNAP-Surface 488); label: 3' end held by stalled T7 RNA polymerase
Parameter: Kd. Scope: all listed entries.
Write the figure, then the unit, nothing else.

Answered examples (6):
Binder: target 3 insA 3' of 22,insC 3' of 20 (mixed) RNA 1: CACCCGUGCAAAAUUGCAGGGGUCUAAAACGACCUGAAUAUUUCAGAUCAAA RNA 2: GGGAAUGGAUCCACAUCUACGAAUUCGUUUAUUCGAUCUGAAAUAUUCAGGUCUGCAGAUCGGAAGAGCACACGU
Kd: 0.086 µM

Binder: target 1 insG 3' of 20,insU 3' of 18 (mixed) RNA 1: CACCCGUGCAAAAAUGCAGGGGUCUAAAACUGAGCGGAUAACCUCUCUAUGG RNA 2: GGGAAUGGAUCCACAUCUACGAAUUCGUACCAGUAUGAGAGGUUAUCCGCUCACCGAGAUCGGAAGAGCACACGU
Kd: 0.065 µM

Binder: target 3 C1U,A5U (mixed) RNA 1: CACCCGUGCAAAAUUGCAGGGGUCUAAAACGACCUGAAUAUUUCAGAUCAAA RNA 2: GGGAAUGGAUCCACAUCUACGAAUUCGUUUUUGAUCUGAAAUAUUCUGGUUUGCAGAUCGGAAGAGCACACGU
Kd: 0.0129 µM

Binder: target 3 U21A,U22A (mixed) RNA 1: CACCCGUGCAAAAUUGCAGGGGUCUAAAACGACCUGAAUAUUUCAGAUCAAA RNA 2: GGGAAUGGAUCCACAUCUACGAAUUCGUUAAUGAUCUGAAAUAUUCAGGUCUGCAGAUCGGAAGAGCACACGU
Kd: 0.0266 µM

Binder: target 2 MT 5'PFS ACG 3'PFS ACU (mixed) RNA 1: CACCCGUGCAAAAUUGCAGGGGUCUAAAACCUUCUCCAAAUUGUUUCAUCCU RNA 2: GGGAAUGGAUCCACAUCUACGAAUUCACGAGGAUGAAACAAUUUGGAGAAGACUAGAUCGGAAGAGCACACGU
Kd: 0.017 µM

Binder: target 1 MT 5'PFS GAA 3'PFS UGC (mixed) RNA 1: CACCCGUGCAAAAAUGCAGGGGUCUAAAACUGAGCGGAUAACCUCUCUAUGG RNA 2: GGGAAUGGAUCCACAUCUACGAAUUCGAACCAUAGAGAGGUUAUCCGCUCAUGCAGAUCGGAAGAGCACACGU
Kd: 0.0109 µM

Provide measured Kd value, entry: target 3 A18G,U22C (mixed) RNA 1: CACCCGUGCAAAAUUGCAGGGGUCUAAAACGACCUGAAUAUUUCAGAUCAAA RNA 2: GGGAAUGGAUCCACAUCUACGAAUUCGUUCUUGGUCUGAAAUAUUCAGGUCUGCAGAUCGGAAGAGCACACGU
0.0138 µM

Name the recorded Kd of the binder listed here: target 2 MT 5'PFS GAU 3'PFS AUG (mixed) RNA 1: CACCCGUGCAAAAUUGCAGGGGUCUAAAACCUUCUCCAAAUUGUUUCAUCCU RNA 2: GGGAAUGGAUCCACAUCUACGAAUUCGAUAGGAUGAAACAAUUUGGAGAAGAUGAGAUCGGAAGAGCACACGU
0.0118 µM
